System: Escherichia coli TOP10
Assay: shrunken log2 fold change of peptide-encoding DNA abundance (4.5 h post-induction vs induction); higher = less antimicrobial activity (less host growth inhibition)
Conditions: time post-induction: 4.5 h; library: site-saturation at positions 5, 18, 19, 20
Could you label it True if measured shrunken log2 fold change is -0.09 or higher, and False otherwise?

Prompt line: Please check the record "RRIRRRPPRLPRPRPRPDHGPRP" and state if its shrunken log2 fold change is at or above -0.09.
Response line: False

Prompt line: Entry "RRIRCRPPRLPRPRPRPRYYPRP" please
Response line: False

Prompt line: Moving on to the next sequence: "RRIRFRPPRLPRPRPRPSLPPRP"
Response line: True

Prompt line: Then "RRIRDRPPRLPRPRPRPQLHPRP" ?
Response line: True

Prompt line: Entry to check: "RRIRWRPPRLPRPRPRPELPPRP"
Response line: True

Prompt line: Again, but for "RRIRVRPPRLPRPRPRPQDIPRP"
Response line: False

Prompt line: Do the same for "RRIRNRPPRLPRPRPRPKIVPRP" please
Response line: True

Prompt line: Continue with "RRIRPRPPRLPRPRPRPISSPRP"
Response line: True

Prompt line: Same lookup for "RRIRIRPPRLPRPRPRPTVRPRP" , please.
Response line: True

Prompt line: Now give it for "RRIRPRPPRLPRPRPRPCGTPRP" too.
Response line: True

Prompt line: # repeat for "RRIRQRPPRLPRPRPRPHLSPRP"
Response line: True

Prompt line: Next record, please: "RRIRNRPPRLPRPRPRPEMRPRP"
Response line: True

Prompt line: Continue with "RRIRERPPRLPRPRPRPLWVPRP"
Response line: False

Prompt line: And for "RRIRLRPPRLPRPRPRPFKFPRP" ?
Response line: False

Prompt line: Quick one: "RRIRDRPPRLPRPRPRPLCPPRP"
Response line: True

Prompt line: Moving on to the next sequence: "RRIRCRPPRLPRPRPRPQSNPRP"
Response line: False

Prompt line: Try "RRIRTRPPRLPRPRPRPPGAPRP" next.
Response line: True

Prompt line: Field entry: "RRIRERPPRLPRPRPRPEWYPRP"
Response line: True

Prompt line: And "RRIRSRPPRLPRPRPRPQMRPRP" ?
Response line: True

* * *

Would you mind telling me the reported shrunken log2 fold change of each entry?
Tested on: Escherichia coli TOP10;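 also: peptides expressed intracellularly from a pBAD plasmid library in pooled LB shake-flask culture, induced with 0.3% L-arabinose, DNA abundance read by NGS, three biological replicates, DESeq2 with apeglm shrinkage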
Test: shrunken log2 fold change of peptide-encoding DNA abundance (4.5 h post-induction vs induction); higher = less antimicrobial activity (less host growth inhibition)
Settings: time post-induction: 4.5 h; library: site-saturation at positions 5, 18, 19, 20
Lab note: record just the number, no unit beside it.

Prompt line: Look up shrunken log2 fold change: "RRIRDRPPRLPRPRPRPMAAPRP"
Response line: 0.0982

Prompt line: Also, "RRIRFRPPRLPRPRPRPAIRPRP" please.
Response line: -0.32

Prompt line: Then "RRIRGRPPRLPRPRPRPENYPRP" ?
Response line: -0.144

Prompt line: Entry to check: "RRIRMRPPRLPRPRPRPKQKPRP"
Response line: 0.0402

Prompt line: Request: "RRIRDRPPRLPRPRPRPKSCPRP"
Response line: -0.0117

Prompt line: Now the sequence "RRIRRRPPRLPRPRPRPTPTPRP"
Response line: 1.14

Prompt line: // query: "RRIRFRPPRLPRPRPRPVFKPRP"
Response line: -0.57

Prompt line: What about "RRIRKRPPRLPRPRPRPITEPRP" ?
Response line: -0.147

Prompt line: Please do the same for "RRIRVRPPRLPRPRPRPNYNPRP" as well.
Response line: -0.76

Prompt line: "RRIRPRPPRLPRPRPRPFYDPRP" , same question.
Response line: -0.138

Prompt line: Queued: "RRIRVRPPRLPRPRPRPPMPPRP"
Response line: 0.368

Prompt line: Likewise for "RRIRSRPPRLPRPRPRPWISPRP" ?
Response line: 0.181

Prompt line: // query: "RRIRHRPPRLPRPRPRPAGYPRP"
Response line: -0.0739

Prompt line: Next entry: "RRIRERPPRLPRPRPRPECNPRP"
Response line: 0.0631

Prompt line: Follow-up entry: "RRIRYRPPRLPRPRPRPHYPPRP"
Response line: -1.84

Prompt line: Repeat for the following sequence: "RRIRERPPRLPRPRPRPCSRPRP"
Response line: -0.00322

Prompt line: One more sequence: "RRIRFRPPRLPRPRPRPKAMPRP"
Response line: 0.23

Prompt line: Entry to check: "RRIRWRPPRLPRPRPRPCWWPRP"
Response line: 0.22

Prompt line: Also need "RRIRMRPPRLPRPRPRPFNLPRP" , thanks.
Response line: -0.16

Prompt line: // repeat for "RRIRKRPPRLPRPRPRPGPHPRP" and report
Response line: 0.803

Prompt line: Likewise for "RRIRQRPPRLPRPRPRPYSVPRP" ?
Response line: -0.00968

Prompt line: Also need "RRIRVRPPRLPRPRPRPDMSPRP" , thanks.
Response line: -0.0318

Prompt line: Entry to check: "RRIRARPPRLPRPRPRPMWGPRP"
Response line: 0.115

Prompt line: Please answer likewise for "RRIRNRPPRLPRPRPRPRGLPRP"
Response line: 0.342

Prompt line: For "RRIRMRPPRLPRPRPRPAVFPRP" then?
Response line: 0.383

Prompt line: Please answer likewise for "RRIRMRPPRLPRPRPRPSSAPRP"
Response line: 0.514

Data origin: the supplement of paper PMC9112550
